target: Small conductance calcium-activated potassium channel protein 3 (Rattus norvegicus, UniProt P70605); experiment: Inhibition of KCa2.3 in Sprague-Dawley rat superior cervical ganglion neurons assessed as inhibition of afterhyperpolarization by electrophysiological assay
Sequence (P70605 whole entry): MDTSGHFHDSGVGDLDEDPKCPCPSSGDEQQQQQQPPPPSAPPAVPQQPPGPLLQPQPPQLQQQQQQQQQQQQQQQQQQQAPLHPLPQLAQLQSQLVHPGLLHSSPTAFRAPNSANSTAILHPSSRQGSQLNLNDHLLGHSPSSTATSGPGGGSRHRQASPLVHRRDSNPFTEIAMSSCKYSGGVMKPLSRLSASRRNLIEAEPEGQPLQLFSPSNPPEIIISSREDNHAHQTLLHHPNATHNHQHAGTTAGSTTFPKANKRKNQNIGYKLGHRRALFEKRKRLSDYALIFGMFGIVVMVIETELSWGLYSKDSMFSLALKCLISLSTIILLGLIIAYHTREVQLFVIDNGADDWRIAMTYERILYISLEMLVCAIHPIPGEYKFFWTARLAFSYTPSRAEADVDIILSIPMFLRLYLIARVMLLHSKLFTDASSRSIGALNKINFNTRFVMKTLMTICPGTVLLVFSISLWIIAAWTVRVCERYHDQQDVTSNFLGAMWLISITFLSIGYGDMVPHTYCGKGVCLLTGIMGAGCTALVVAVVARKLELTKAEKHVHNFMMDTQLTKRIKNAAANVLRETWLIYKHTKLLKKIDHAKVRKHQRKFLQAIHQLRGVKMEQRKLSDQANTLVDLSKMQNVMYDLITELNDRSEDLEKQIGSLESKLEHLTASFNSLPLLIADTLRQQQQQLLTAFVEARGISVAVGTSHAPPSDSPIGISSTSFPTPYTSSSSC
pIC50: −log10 of the molar value.
ENDPOINT: pIC50

>>> result("Cc1ccc2c(c1)c1cc[n+]2CCCCC[n+]2ccc(c3cc(C)ccc32)NCCCCCN1")
8.42
>>> result("FC(F)(F)c1ccc2c(c1)c1cc[n+]2Cc2cccc(c2)C[n+]2ccc(c3cc(C(F)(F)F)ccc32)NCc2ccc(cc2)CN1")
7.57
>>> result("c1ccc2c(c1)c1cc[n+]2CCOCC[n+]2ccc(c3ccccc32)NCCSCCN1")
7.24
>>> result("FC(F)(F)c1ccc2c3cc[n+](c2c1)CCCCC[n+]1ccc(c2ccc(C(F)(F)F)cc21)NCCCCCN3")
8.09
>>> result("FC1(F)CNc2cc[n+](c3ccccc23)CCCCC[n+]2ccc(c3ccccc32)NCC(F)(F)C1(F)F")
7.48
>>> result("c1cc2cc(c1)C[n+]1ccc(c3ccccc31)NCc1ccc(cc1)CNc1cc[n+](c3ccccc13)C2")
8.39

a. COc1c2cccc1CNc1cc[n+](c3ccccc13)CCCCC[n+]1ccc(c3ccccc31)NC2
b. COc1ccc2c(c1)c1cc[n+]2CCCCC[n+]2ccc(c3cc(OC)ccc32)NCCCCCN1
Kindly identify which of a and b has the larger recorded pIC50 value. Record your answer as the label of the chosen record.
b
